Measured values drawn from the NIST ThermoML archive (doi:10.1021/je400250u) for this set.

Settings: 303.15 K; 100 kPa; Liquid; Vibrating tube method
± gives the expanded uncertainty stated by the source.
QUANTITY NAME: mass density
Please make sure the unit comes right after the number.

INSERT INTO measurements (compound, quantity_name, result) VALUES
  ('C1CC[C@H]2CCCC[C@@H]2C1 [trans-decahydronaphthalene]', 'mass density', '862.34 ± 0.14 kg/m3');

Provide each entry's mass density from the list below.
1. CCCCCCCCCC [decane]
2. CCCCCCCCCCC [undecane]
3. CCCCCCCCC [nonane]
4. C1CC[C@H]2CCCC[C@H]2C1 [cis-decahydronaphthalene]

Data returned:
["723.64 ± 0.23 kg/m3", "732.93 ± 0.32 kg/m3", "710.2 ± 0.24 kg/m3", "889.26 ± 0.48 kg/m3"]

* * *

Hi there, I'd appreciate the recorded mass density for every entry that follows.
Conditions: 308.15 K; 100 kPa; Liquid; Vibrating tube method
Give bare numbers, in kg/m3.

Reference set (3 entries):
INSERT INTO measurements (molecule, numeric_result) VALUES
  ('C1CC[C@H]2CCCC[C@@H]2C1 [trans-decahydronaphthalene]', 858.61),
  ('CCCCCCCCC', 706.29),
  ('CCCCCCCCCCC', 729.22);

Provide each entry's mass density from the list below.
1. CCCCCCCCCC
2. C1CC[C@H]2CCCC[C@H]2C1 [cis-decahydronaphthalene]

Data returned:
[719.84, 885.46]

* * *

Hi there, I'd appreciate the recorded viscosity for every entry that follows.
Settings: 303.15 K; 100 kPa; Liquid; Capillary tube (Ostwald / Ubbelohde) method
Answers are plain numbers, in mPa·s.

Provide each entry's viscosity from the list below.
1. C1CC[C@H]2CCCC[C@@H]2C1 [trans-decahydronaphthalene]
2. CCCCCCCCC [nonane]
3. C1CC[C@H]2CCCC[C@H]2C1 [cis-decahydronaphthalene]
4. CCCCCCCCCCC [undecane]
5. CCCCCCCCCC [decane]

Data returned:
1: 1.769; 2: 0.64; 3: 2.718; 4: 1.004; 5: 0.799

* * *

Hi there, I'd appreciate the recorded mass density for every entry that follows.
Conditions: 298.15 K; 100 kPa; Liquid; Vibrating tube method
Numbers only, in kg/m3.

INSERT INTO measurements (molecule, numeric_result) VALUES
  ('C1CC[C@H]2CCCC[C@@H]2C1 [trans-decahydronaphthalene]', 866.07),
  ('CCCCCCCCCCC', 736.63),
  ('C1CC[C@H]2CCCC[C@H]2C1 [cis-decahydronaphthalene]', 893.06),
  ('CCCCCCCCC', 714.11);

# ---- query molecule ----
// mass density value for `CCCCCCCCCC` : 727.43

* * *

Assay: refractive index (Na D-line) (dimensionless)
Conditions: 298.15 K; 101.33 kPa; Liquid; Standard Abbe refractometry
QUANTITY NAME: refractive index
Answers are plain numbers.

Reference set (4 entries):
INSERT INTO results (molecule, quantity_name, numeric_result) VALUES
  ('CCCCCCCCCC [decane]', 'refractive index', 1.4098),
  ('C1CC[C@H]2CCCC[C@H]2C1 [cis-decahydronaphthalene]', 'refractive index', 1.4776),
  ('C1CC[C@H]2CCCC[C@@H]2C1 [trans-decahydronaphthalene]', 'refractive index', 1.4662),
  ('CCCCCCCCCCC [undecane]', 'refractive index', 1.4138);

# ---- query molecule ----
// refractive index value for CCCCCCCCC [nonane] : 1.4026
